test: NCI Yeast Anticancer Drug Screen. Data for the mec2-1 strain (AID 157); details: S. cerevisiae mec2-1 strain, at 50.0 µM, hits give high values
This is part of a sample that, as a whole, favours compounds with a hit. Of some 79,000 tested, about 15% had one in any assay. Calls of active or inactive are those of the source. Rule as the data show it: active = growth inhibition above about 70%; inactive = the rest.
reported.property: growth inhibition

molecule | experimental.value
N#CSCc1ccc(CSC#N)c(Cl)c1 | 40.4% (inactive)
O=C(c1ccc([N+](=O)[O-])cc1)N1CCCSC1=S | 22.2% (inactive)
CCCCCCN(CCCCCC)CC(O)c1cc(-c2ccccc2)nc2c(O)cccc12 (stereo not drawn) | 22.6% (inactive)

For every item in the list below, what is its measured growth inhibition?
1. CN(C)CC/C(=N\Nc1ccc(Cl)cc1)c1ccccc1
2. CCCCCCC(=O)CC(SCCN)c1ccccc1Cl (stereo not drawn)
3. Nc1ccccc1OCC(O)CN1CCN(Cc2ccccc2)CC1 (stereo not drawn)
4. C/C(=N\NC(=S)N1CCN(Cc2ccccc2)CC1)c1ccccn1
5. CN(C)CC1CCC/C(=C\c2ccc(Cl)cc2)C1=O (stereo not drawn)

1: 98.8% (active); 2: 99.4% (active); 3: 41% (inactive); 4: 88.8% (active); 5: 86.8% (active)

* * *

assay: NCI Yeast Anticancer Drug Screen. Data for the mlh1 rad18 strain (AID 175); details: S. cerevisiae mlh1 rad18 strain growth inhibition; at 5.0 µM (retest, dose inferred, filed as 0.5); hits give high values
The panel holds about 79,000 compounds, 15% with a hit somewhere; the sample as a whole holds those more often.
// label = fulfilled if growth inhibition is not less than 10%, otherwise not fulfilled

The examples below pair each entry with its known result.
compound | discrete.label
S=C(NCCNC(=S)[S][Sn]([c]1ccccc1)([c]1ccccc1)[c]1ccccc1)[S][Sn]([c]1ccccc1)([c]1ccccc1)[c]1ccccc1 | fulfilled
COc1cccc(CC2N(S(=O)(=O)c3ccc(C)cc3)CCC23C(=O)Nc2ccccc23)c1OC (stereo not given) | not fulfilled
Clc1ccc2[nH]c(-c3ccccc3)c(-c3ccccn3)c2c1 | fulfilled
Cc1ccc(C2SCc3nc4ccccc4n32)cc1 (stereo not given) | fulfilled

Determine whether this compound has growth inhibition no lower than 10%: "Cc1ccc([PH+](CC[PH+](c2ccccc2)c2ccccc2)c2ccc(C)cc2)cc1.Cc1ccc([PH+](CC[PH+](c2ccccc2)c2ccccc2)c2ccc(C)cc2)cc1.[Pt]"
fulfilled

Determine whether this compound has growth inhibition no lower than 10%: "CCCCCCCCCCCCCCCCCCOP(=O)([O-])OC1CC[N+](C)(C)CC1"
fulfilled

Determine whether this compound has growth inhibition no lower than 10%: CCCCCCCCCCCCCCCCC1CCc2ccccc21 (stereo not given)
not fulfilled

Determine whether this compound has growth inhibition no lower than 10%: CCOC(=O)C(CO)c1nc2c([nH]c1=O)c(=O)n(C)c(=O)n2C (stereo not given)
fulfilled

Determine whether this compound has growth inhibition no lower than 10%: "COc1ccc(-n2c(=O)c3[nH]c(=S)[nH]c3n(-c3ccc(OC)cc3)c2=S)cc1"
fulfilled

Determine whether this compound has growth inhibition no lower than 10%: CC(=O)C1C(S)CC2C3CC=C4CC(O)CCC4(C)C3CCC21C (stereo not given)
not fulfilled

* * *

assay: NCI Yeast Anticancer Drug Screen. Data for the bub3 strain (AID 167); conditions: S. cerevisiae bub3 mutant strain, at 50.0 µM (retest, dose inferred, filed as 5.0), hits give high values
Compounds without any hit were thinned out: in the full panel of roughly 79,000, 15% have a hit.
// label = 1 if growth inhibition is not less than 30%, otherwise -1

The examples below pair each entry with its known result.
compound | discrete.label
CC(=O)c1ccc(OCc2ccccc2)cc1 | -1
C[N+](C)([O-])CCOc1cc2c(c3ccccc13)-c1ccccc1C2=O | -1
Clc1ccc2[nH]c(-c3ccccc3)c(-c3ccccn3)c2c1 | 1
Cc1cccc(C)c1N1C(=O)C2Nc3ccccc3SC2C1=O (stereo not given) | 1
CCCCCCCCCCCCCCCCCC(=O)OCC(COC(=O)CCCN)OC(=O)CCCN (stereo not given) | 1

Determine whether this compound has growth inhibition no lower than 30%: CC1=CC2C(O)(CC(CO)=CC3C4C(C)(C)C4(OC(=O)c4ccccc4)C(OC(=O)c4ccccc4)C(C)C32O)C1=O (stereo not given)
1

Determine whether this compound has growth inhibition no lower than 30%: "CC(C)(CCBr)[N+](=O)[O-]"
-1

Determine whether this compound has growth inhibition no lower than 30%: "Cc1c(CCl)c(=O)oc2c(C)c3occ(CCl)c(=O)c3cc12"
1

Determine whether this compound has growth inhibition no lower than 30%: O=C1CCCCCC1Cc1cc(O)c(CC2CCCCCC2=O)cc1O (stereo not given)
1

Determine whether this compound has growth inhibition no lower than 30%: OC1C2COc3nc4ccccc4n3C(O2)C1O (stereo not given)
-1

* * *

So I've got a bunch of compounds here, and I need their growth inhibition values.
assay: NCI Yeast Anticancer Drug Screen. Data for the mec2-1 strain (AID 157); conditions: S. cerevisiae mec2-1 strain, at 50.0 µM (retest, dose inferred, filed as 5.0), hits give high values
About 79,000 compounds went through this panel and 15% of them were active in at least one assay; those are over-represented in the sample as a whole.
One number for each entry, in %.

Example results:
compound | reported.property | unit.abbreviation | experimental.value
Cc1cc(-c2ccccc2)nc2nc3ccccc3n12 | growth inhibition | % | 21
O=[N+]([O-])c1cccc(S(=O)(=O)N/N=C/c2cc(I)cc([N+](=O)[O-])c2O)c1 | growth inhibition | % | 2

For every item in the list below, what is its measured growth inhibition?
1. O=C(CNC(=O)C(CSCc1ccccc1)NC(=O)OCc1ccccc1)Oc1c(Cl)c(Cl)c(Cl)c(Cl)c1Cl (stereo unspecified)
2. CC(=O)c1cc(-c2ccccc2)nc2ccccc12
3. N#Cc1snc2sc(=O)sc12

[30, 84, 99]

For every item in the list below, what is its measured growth inhibition?
1. OC1(C2c3ccccc3-c3ccccc32)c2ccccc2-c2ccccc21
2. O=C(O/N=C1/CCC/C1=C\c1ccccc1)c1ccccc1
3. CCCCCCCNc1ccc2c(cc1=O)C(NC(C)=O)CCc1cc(OC)c(OC)c(OC)c1-2 (stereo unspecified)
4. CC(C(=O)O)c1c(-c2ccccc2)ccc2ccccc12 (stereo unspecified)
5. O=C1C=CC(=O)c2c(O)c(N3CCN(CCO)CC3)c(Cl)c(O)c21

94
99
98
4
99

Given the entry "C=CCNC(=O)NC1=CSC2=NC(=O)C3(NN12)c1ccccc1-c1ccccc13" , report its measured growth inhibition.
48

* * *

assay: NCI Yeast Anticancer Drug Screen. Data for the bub3 strain (AID 167); conditions: S. cerevisiae bub3 mutant strain, at 5.0 µM (retest, dose inferred, filed as 0.5)
The panel holds about 79,000 compounds, 15% with a hit somewhere; the sample as a whole holds those more often. Activity calls are given as the source filed them. Rule as the data show it: active = growth inhibition above about 70%; inactive = the rest.
Result category, one only: T for active, F for inactive

The examples below pair each entry with its known result.
compound | discrete.label
CCN(CC)c1ccc(N=Nc2ccc(-c3nc4cccn(C)c-4n3)cc2)cc1 | F
N=C(N)c1ccc(Nc2ccc(-c3cc4ccc(C(=N)N)cc4[nH]3)cc2)cc1 | T
Cc1c(N)cc(I)cc1[N+](=O)[O-] | F

Hi, sorry to bother you, what did the test record for "CCCCCC(CCCCC)C(=O)O" ?
F

* * *

experiment: NCI Yeast Anticancer Drug Screen. Data for the sgs1 mgt1 strain (AID 161);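 also: 0% = growth of cultures given vehicle only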; conditions: S. cerevisiae sgs1 mgt1 strain, at 50.0 µM, hits give high values
The panel holds about 79,000 compounds, 15% with a hit somewhere; the sample as a whole holds those more often.
reported.property: growth inhibition (%)
Answers are plain numbers, in %.

Example results:
molecule | experimental.value
O=C([O-])c1ccc([I+]c2ccccc2)cc1 | 48.1
CS(=O)(=O)OCCN(CCOS(C)(=O)=O)c1ccc(C=Nc2cccc(Cl)c2)cc1 | 88.8
CCCCOP(=O)(OCCCC)C(NS(=O)(=O)c1ccccc1)(C(=O)OCC)C(F)(F)F (stereo not given) | 99
Cn1cc(C2=CC(=O)C=CC2=O)c2ccccc21 | 98.8

Could you now consider this next molecule?
Given the entry "OCCCNc1nc2ccc(Cl)cc2c2ccccc12" , report its measured growth inhibition.
25.7

* * *

Assay: NCI Yeast Anticancer Drug Screen. Data for the mec2-1 strain (AID 157)
Settings: S. cerevisiae mec2-1 strain, at 50.0 µM (retest, dose inferred, filed as 5.0), hits give high values
Procedure: Growth inhibition of yeast strains with defined genetic alterations is measured as a screen for potential anti-cancer activity. Selected strains with alterations in DNA damage repair or cell cycle control were exposed to compounds and growth inhibition was measured relative to vehicle treated controls. The strain used in this assay is mec2-1
About 79,000 compounds went through this panel and 15% of them were active in at least one assay; those are over-represented in the sample as a whole.
// label = TRUE if growth inhibition is not less than 80%, otherwise FALSE

Determine whether this compound has growth inhibition no lower than 80%: "FC(F)(F)c1nc(S)cc(=S)[nH]1"
FALSE

Determine whether this compound has growth inhibition no lower than 80%: "O=c1[nH]c2c([N+](=O)[O-])cc(Cl)cc2nc1/C=C(\O)c1ccccc1"
FALSE

Determine whether this compound has growth inhibition no lower than 80%: "O=C1C=CC(=O)N1c1cccc(F)c1"
TRUE
